Each recorded value in this set is attributed to PubChem BioAssay AID1159580.

- procedure text: chemical genetic growth profiling, strain panel (AID 1159580);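 also: tested at 20 µM; growth read once vehicle control cultures reached saturation at 30 °C; lower values mean less growth of the strain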
- study conditions: S. cerevisiae deletion strains, growth OD, locus YLR262C, strain YPT6 (second series)
The whole screen tested about 5,500 compounds, of which about 2,000 (36%) were called active. About 18% were inconclusive and are not listed. Rule as the data show it: active = normalized growth mostly below about 0.91 (no sharp cut-off); inconclusive = no clear call, values can overlap the other calls; inactive = mostly above about 0.92. The list shows a part of the results.
Classes used: active, inactive

• CC12CCCCC1(Br)[N+](=O)N2[O-] (stereo not given) = active
• C[C@H]1C[C@@H](O)[C@]2(O)[C@@]13CC(=O)OC[C@@]2(C)[C@](C)(O)C(=O)C3 = inactive
• C[C@@H]1CC2C3CCC4=CC(=O)C=C[C@]4(C)[C@@]3(F)[C@@H](O)C[C@]2(C)[C@@]1(O)C(=O)CO (stereo not given in full) = inactive
• CC1(C)N([O-])[N+](=O)C1(C)Br (stereo not given) = inactive
• Oc1c(Cl)cc(Cl)c(Cl)c1Cc1c(O)c(Cl)cc(Cl)c1Cl = active
